Target: C3b (UniProt P01024)
Sequence (P01024 23-667 limits assumed, chain 1 of 2): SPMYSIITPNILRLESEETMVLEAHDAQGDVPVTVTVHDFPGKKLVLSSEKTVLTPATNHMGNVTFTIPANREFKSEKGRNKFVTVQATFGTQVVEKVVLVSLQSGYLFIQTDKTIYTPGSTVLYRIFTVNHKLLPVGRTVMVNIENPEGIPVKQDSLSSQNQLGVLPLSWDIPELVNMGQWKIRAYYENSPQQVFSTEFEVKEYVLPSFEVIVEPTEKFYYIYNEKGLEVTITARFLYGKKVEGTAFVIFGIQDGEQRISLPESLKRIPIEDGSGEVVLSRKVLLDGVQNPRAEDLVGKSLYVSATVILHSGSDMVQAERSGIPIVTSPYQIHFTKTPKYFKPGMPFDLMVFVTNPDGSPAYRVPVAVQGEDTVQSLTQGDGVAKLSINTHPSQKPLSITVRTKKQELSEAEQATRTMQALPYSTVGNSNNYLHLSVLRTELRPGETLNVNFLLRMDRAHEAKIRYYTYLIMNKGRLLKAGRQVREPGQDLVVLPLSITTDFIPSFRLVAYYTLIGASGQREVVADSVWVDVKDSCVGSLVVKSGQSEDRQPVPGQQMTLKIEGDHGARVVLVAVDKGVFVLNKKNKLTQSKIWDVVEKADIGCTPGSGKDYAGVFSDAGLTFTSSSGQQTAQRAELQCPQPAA
Sequence (P01024 749-1663 limits assumed, chain 2 of 2): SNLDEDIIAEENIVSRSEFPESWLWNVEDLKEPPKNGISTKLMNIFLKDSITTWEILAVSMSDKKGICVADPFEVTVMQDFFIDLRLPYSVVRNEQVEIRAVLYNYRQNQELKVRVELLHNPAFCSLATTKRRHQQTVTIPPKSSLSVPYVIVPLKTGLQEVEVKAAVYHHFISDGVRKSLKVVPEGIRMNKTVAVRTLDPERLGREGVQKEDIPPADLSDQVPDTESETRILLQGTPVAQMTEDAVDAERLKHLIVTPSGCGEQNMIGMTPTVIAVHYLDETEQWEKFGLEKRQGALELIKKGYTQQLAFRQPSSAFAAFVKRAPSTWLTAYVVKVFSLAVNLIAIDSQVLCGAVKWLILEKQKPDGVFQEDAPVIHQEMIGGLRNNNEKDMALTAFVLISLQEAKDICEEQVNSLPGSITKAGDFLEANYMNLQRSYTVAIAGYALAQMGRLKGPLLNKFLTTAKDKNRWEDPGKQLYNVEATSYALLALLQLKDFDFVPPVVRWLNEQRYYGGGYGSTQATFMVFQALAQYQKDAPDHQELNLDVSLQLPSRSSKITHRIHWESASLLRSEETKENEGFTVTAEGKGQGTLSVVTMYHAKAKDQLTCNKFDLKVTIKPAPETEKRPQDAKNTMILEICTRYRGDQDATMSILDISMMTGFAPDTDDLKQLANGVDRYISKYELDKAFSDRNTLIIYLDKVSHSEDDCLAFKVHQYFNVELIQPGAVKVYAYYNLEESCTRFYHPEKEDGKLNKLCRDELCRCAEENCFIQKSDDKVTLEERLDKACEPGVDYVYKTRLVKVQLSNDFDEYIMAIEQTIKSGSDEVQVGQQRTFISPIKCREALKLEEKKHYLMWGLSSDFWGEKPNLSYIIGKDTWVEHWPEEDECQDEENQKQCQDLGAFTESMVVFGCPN
Experiment: cell-based or functional assay
Would you mind telling me the reported Relative C3b CFA of each entry?
Numbers only.

Record Relative C3b CFA per entry; entries follow.
1. D2D3M3M4 (Multi-1) (protein) CEVPTRLNSASLKQPYITQNYFPVGTVVEYECRPGYRREPSLSPKLTCLQNLKWSTAVEFCKKKSCPNPGEIRNGQIDVPGGILFGATISFSCNTGYKLFGSTSSFCLISGSSVQWSDPLPICEKVLCTPPPKIKNGKHTFSEVEVFEYLDAVTYSCDPAPGPDPFSLIGESTIYCGDNSVWSRAAPECKVVKCRFPVVENGKQISGFGKKFYYKATVMFECDKGFYLDGSDTIVCDSNSTWDPPVPKCLKVL
2. D2D3M3M4 (F197I) (protein) CEVPTRLNSASLKQPYITQNYFPVGTVVEYECRPGYRREPSLSPKLTCLQNLKWSTAVEFCKKKSCPNPGEIRNGQIDVPGGILFGATISFSCNTGYKLIGSTSSFCLISGSSVQWSDPLPECREIYCTPPPKIKNGKHTFSEVEVFEYLDAVTYSCDPAPGPDPFSLIGESTIYCGDNSVWSRAAPECKVVKCRFPVVENGKQISGFGKKFYYKATVMFECDKGFYLDGSDTIVCDSNSTWDPPVPKCLKVL
3. D2D3M3M4 (P216K) (protein) CEVPTRLNSASLKQPYITQNYFPVGTVVEYECRPGYRREPSLSPKLTCLQNLKWSTAVEFCKKKSCPNPGEIRNGQIDVPGGILFGATISFSCNTGYKLFGSTSSFCLISGSSVQWSDKLPECREIYCTPPPKIKNGKHTFSEVEVFEYLDAVTYSCDPAPGPDPFSLIGESTIYCGDNSVWSRAAPECKVVKCRFPVVENGKQISGFGKKFYYKATVMFECDKGFYLDGSDTIVCDSNSTWDPPVPKCLKVL

1: 3; 2: 1.7; 3: 2.7
